Here, each record is paired with measured reverse-splicing fitness data.
B1: Azoarcus group I ribozyme (parent)
chain: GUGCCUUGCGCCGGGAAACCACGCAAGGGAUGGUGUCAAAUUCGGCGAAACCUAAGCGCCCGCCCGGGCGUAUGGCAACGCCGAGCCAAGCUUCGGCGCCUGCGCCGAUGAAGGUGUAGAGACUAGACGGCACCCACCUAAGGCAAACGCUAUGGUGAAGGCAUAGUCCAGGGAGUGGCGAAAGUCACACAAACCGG

- Variants of: B1
- method notes: reverse-splicing fitness (ratio to wild type); higher = more active; in vitro selection; Mg2+ level not given
measured quantity: reverse-splicing fitness

mutant label: C82U A111U A145U C169G U176C
recorded value: 0.0101
//
mutant label: C82G A111U A120U C150G C169A U176C
recorded value: 0.00545
//
mutant label: A111G A120C A145U C150U C169G
recorded value: 0.0111
//
mutant label: C82A A111G A120C A145U C150A C169U U176A
recorded value: 0.0152
//
mutant label: C82A A111U A145U C150A C169U U176G
recorded value: 0.00771
//
mutant label: C82A A111G A120C C150G C169U U176A
recorded value: 0.00701
//
mutant label: C82G A111C A120C A145U C150A U176A
recorded value: 0.0102
//
mutant label: C82G A120G A145C U176C
recorded value: 0.0158
//
mutant label: C82U A111C A120U A145C C150G C169U
recorded value: 0.00396
//
mutant label: C82U A111G A120G C150A U176G
recorded value: 0.00658
//
mutant label: C82A A120U A145C C150G C169U
recorded value: 0.00298
//
mutant label: C82A A120G A145U C150U C169G
recorded value: 0.0173
//
mutant label: C82A A145U C150A
recorded value: 0.0549
//
mutant label: C82A A111U A145U C150U U176A
recorded value: 0.0636
//
mutant label: C82U A111G A120G A145G C150U C169A U176G
recorded value: 0.00562
//
mutant label: C82G A111G A120U A145C C169U U176C
recorded value: 0.00228
//
mutant label: C82U A120G A145G C150U C169A U176A
recorded value: 0.0153
//
mutant label: C82U A111C A120U A145C C150A C169U
recorded value: 0.00301
//
mutant label: C82G A111U A145G C169G U176C
recorded value: 0.0258
//
mutant label: C82U A111G A120G A145G C150A C169G U176G
recorded value: 0.00482
//
mutant label: C82A A111G A120G C150U C169U
recorded value: 0.0102
//
mutant label: A111G A120U A145C C150G C169U U176G
recorded value: 0.00225
//
mutant label: C82U A111U A120G A145U C150G C169G U176A
recorded value: 0.00623
//
mutant label: C82A A111C A120C A145C C150A C169U U176G
recorded value: 0.00786
//
mutant label: C82G A120G A145C C150G C169U U176C
recorded value: 0.0125
//
mutant label: C82G A111G A145G C150A C169A U176G
recorded value: 0.00692
//
mutant label: C82U A111C A145U C150G C169A U176G
recorded value: 0.00824
//
mutant label: C82A A111U A145C C169A U176A
recorded value: 0.0109
//
mutant label: C82U A111U A120G A145G C150G
recorded value: 0.00732
//
mutant label: A120G C150A C169A
recorded value: 0.0602
//
mutant label: C82A A111U A120C A145U C150G C169G U176A
recorded value: 0.00986
//
mutant label: C82G A111G A120C A145U C169U
recorded value: 0.0157
//
mutant label: C82G A111U A120G C150A U176A
recorded value: 0.0143
//
mutant label: C82U A111U A120G A145G C150A C169G
recorded value: 0.00828
//
mutant label: C82A A111G A120G A145G C150A C169U U176G
recorded value: 0.00673
//
mutant label: C82U A111G A120C A145G C150A C169G U176G
recorded value: 0.00547
//
mutant label: C82A A145C C150A U176G
recorded value: 0.0123
//
mutant label: C82U A111C A120G A145C C150U C169G U176G
recorded value: 0.00492
//
mutant label: C82A A111C A145G C150U C169A U176C
recorded value: 0.0148
//
mutant label: C82G A111G A120G A145C C150U U176C
recorded value: 0.0149
//
mutant label: A111G A120G A145C C150U C169A
recorded value: 0.0431
//
mutant label: A111U A145G C150U C169A U176A
recorded value: 0.0155
//
mutant label: C82G A111C A120U A145U
recorded value: 0.0481
//
mutant label: A111G A120C A145C C150G C169G
recorded value: 0.00666
//
mutant label: C82A C150A
recorded value: 0.0666
//
mutant label: C82G A120C A145U C169A U176C
recorded value: 0.00989
//
mutant label: C82G A111U A120C U176G
recorded value: 0.00814
//
mutant label: C82G A120C C150A U176A
recorded value: 0.0182
//
mutant label: C82A A111U A120G A145U C150U C169U U176A
recorded value: 0.0207
//
mutant label: C82A A111U A120G A145G C150U C169A
recorded value: 0.0106
//
mutant label: C82G A120G C150G C169G U176C
recorded value: 0.00511
//
mutant label: C82G A120U A145G C150A C169A U176A
recorded value: 0.00645
//
mutant label: A111C A145G C150G U176A
recorded value: 0.0686
//
mutant label: C82U A111G A120G C150A U176A
recorded value: 0.00996
//
mutant label: C82A A111U A145C C150G U176C
recorded value: 0.0163
//
mutant label: C82G A145U C150A U176A
recorded value: 0.0428
//
mutant label: C82A A111U A120C A145U C150A U176C
recorded value: 0.0223
//
mutant label: A111C A120C C150A C169U U176C
recorded value: 0.0224
//
mutant label: A111C A120C A145C C150A C169U U176A
recorded value: 0.0155
//
mutant label: C82G A111U A120C C150U C169G U176G
recorded value: 0.00625
//
mutant label: C82U A111C A145C C150A
recorded value: 0.0154
//
mutant label: C82A A111G A145G C150G U176A
recorded value: 0.00955
//
mutant label: C82G A111U A120G C150G C169A
recorded value: 0.00883
//
mutant label: C82G A111C A120G C150G C169U U176A
recorded value: 0.0081
//
mutant label: C82G A145U C150U C169U U176A
recorded value: 0.0118
//
mutant label: A111G A120U C150A C169A U176G
recorded value: 0.00195
//
mutant label: C82G A111U A120C A145G C150A C169U U176C
recorded value: 0.0159
//
mutant label: C82U A111G A120C C150U C169A U176A
recorded value: 0.0164
//
mutant label: A111G A120U A145C C150G C169G
recorded value: 0.0104
//
mutant label: A111G A145U C150U C169G U176G
recorded value: 0.0059
//
mutant label: A111G A120U A145U C169G U176A
recorded value: 0.00865
//
mutant label: C82U A145C C150U C169G U176C
recorded value: 0.00881
//
mutant label: A111C A120C A145C C169A U176G
recorded value: 0.00493
//
mutant label: C82G A111U A145U C169A U176G
recorded value: 0.00626
//
mutant label: C82U A120U A145U C150G C169U
recorded value: 0.00244
//
mutant label: A111C A120U A145C
recorded value: 0.598
//
mutant label: A111C A120G A145U C150A C169A U176C
recorded value: 0.011
//
mutant label: C82G A111U A120C C169A U176G
recorded value: 0.00684
//
mutant label: A111U A120G A145G C150A C169U U176A
recorded value: 0.0247
//
mutant label: C82U A120G A145C C150A C169U U176G
recorded value: 0.0041
//
mutant label: C82G A120G A145C C150G C169G
recorded value: 0.0108
//
mutant label: C82U A111G A145C C150U C169U U176G
recorded value: 0.00493
//
mutant label: C82A A111G A120U C150U
recorded value: 0.0201
//
mutant label: C82A A120C A145U C150U C169A
recorded value: 0.00998
//
mutant label: A111U A120G A145C C150U C169U U176G
recorded value: 0.00469
//
mutant label: C82A A111C A120C A145C C150A C169A U176A
recorded value: 0.0167
//
mutant label: C82G A145C C169A U176C
recorded value: 0.00541
//
mutant label: A120C A145G C150U C169A U176G
recorded value: 0.00444
//
mutant label: C82U A120C A145G C150U C169U U176G
recorded value: 0.00416
//
mutant label: C82G A111C A120U A145C C150U U176G
recorded value: 0.00325
//
mutant label: C82U A111C A120U A145G C150A U176A
recorded value: 0.00653
